Test: In vitro cytotoxicity, resazurin assay
Type: cell-based, human
Details: human, HeLa cells; HeLa cell viability at 10 µg/mL, 24 h; read-out: Viability % ± SD at 10 μg/mL
QUANTITY MEASURED: viability at 24 h, 10 µg/mL (%)
The response must be a number in % with no trailing unit.

Prompt: Value lookup for viability at 24 h, 10 µg/mL; key = COc1c(-c2ccc(O)c(O)c2)oc2cc(O)cc(O)c2c1=O [3-O-Methylquercetin (4), 3-O-methylquercetin]
Response: 57.9

====

Test: In vitro cytotoxicity, resazurin assay
Type: cell-based, human
Settings: human, HeLa cell viability at 50 µg/mL, 24 h; read-out: Viability % ± SD at 50 μg/mL
QUANTITY MEASURED: viability at 24 h, 50 µg/mL (%)
The response must be a number in % with no trailing unit.

Prompt: Value lookup for viability at 24 h, 50 µg/mL; key = COC(=O)c1cc(O)c(O)c(O)c1 [Methyl gallate (9), methyl gallate]
Response: 2

All figures here come from paper PMC9033093.
